Reference for the values: patent US20250250357A1

Measured competition rate by item
- testedSystem: T1, human MSLN-FL-his protein (human, UniProt Q13421 296-580)
- T1 construct: made in HEK293E cells, purified on nickel column; also called hMSLN-FL-his; human MSLN full-length protein; not shown: His tag
- T1 sequence (Q13421 other isoform, or with tags, fused parts or gaps): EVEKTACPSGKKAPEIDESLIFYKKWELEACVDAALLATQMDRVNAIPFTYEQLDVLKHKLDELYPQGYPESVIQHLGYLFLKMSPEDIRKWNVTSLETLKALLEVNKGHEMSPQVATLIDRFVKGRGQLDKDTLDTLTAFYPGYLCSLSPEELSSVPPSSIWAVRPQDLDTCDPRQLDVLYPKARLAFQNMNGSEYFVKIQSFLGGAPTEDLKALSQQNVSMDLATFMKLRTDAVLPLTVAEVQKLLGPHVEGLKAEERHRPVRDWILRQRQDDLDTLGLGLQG
- protocolText: competitive ELISA; coated 2ug/ml F3.74.20
Form entry: value (%) — number only.

Exam item: Return reported competition rate; argument: S009-F4-127.10 (antibody, human IgG1, kappa, V domains shown, human-murine chimeric antibody, human IgG1/kappa constant regions) VH: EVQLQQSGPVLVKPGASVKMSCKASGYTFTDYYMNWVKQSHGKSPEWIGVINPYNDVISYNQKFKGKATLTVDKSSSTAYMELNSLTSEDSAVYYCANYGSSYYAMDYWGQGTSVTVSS VL: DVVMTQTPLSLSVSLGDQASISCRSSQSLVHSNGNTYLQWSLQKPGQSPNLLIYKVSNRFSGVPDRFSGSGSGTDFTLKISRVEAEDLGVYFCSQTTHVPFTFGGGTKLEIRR
Marked response: 91

Exam item: Return reported competition rate; argument: S009-F3.80.22 (antibody, human IgG1, kappa, V domains shown, human-murine chimeric antibody, human IgG1/kappa constant regions) VH: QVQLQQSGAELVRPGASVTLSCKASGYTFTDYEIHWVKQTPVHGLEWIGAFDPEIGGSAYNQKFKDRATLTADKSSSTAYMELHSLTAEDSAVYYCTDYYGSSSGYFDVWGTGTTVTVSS VL: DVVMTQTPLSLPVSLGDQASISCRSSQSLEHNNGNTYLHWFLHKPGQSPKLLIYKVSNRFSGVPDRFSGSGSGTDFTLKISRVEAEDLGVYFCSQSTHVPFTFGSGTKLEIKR
Marked response: -12

Exam item: Return reported competition rate; argument: S009-F3.45.21 (antibody, human IgG1, kappa, V domains shown, human-murine chimeric antibody, human IgG1/kappa constant regions) VH: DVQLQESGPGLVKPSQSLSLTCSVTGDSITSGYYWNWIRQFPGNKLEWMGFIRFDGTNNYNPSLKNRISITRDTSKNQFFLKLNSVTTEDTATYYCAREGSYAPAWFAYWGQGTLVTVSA VL: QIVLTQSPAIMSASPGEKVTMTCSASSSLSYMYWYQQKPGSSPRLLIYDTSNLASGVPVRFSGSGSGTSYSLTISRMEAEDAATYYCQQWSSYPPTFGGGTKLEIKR
Marked response: 96
